Molecular target: Cholesteryl ester transfer protein (Homo sapiens, UniProt P11597)
Sequence (P11597 whole entry): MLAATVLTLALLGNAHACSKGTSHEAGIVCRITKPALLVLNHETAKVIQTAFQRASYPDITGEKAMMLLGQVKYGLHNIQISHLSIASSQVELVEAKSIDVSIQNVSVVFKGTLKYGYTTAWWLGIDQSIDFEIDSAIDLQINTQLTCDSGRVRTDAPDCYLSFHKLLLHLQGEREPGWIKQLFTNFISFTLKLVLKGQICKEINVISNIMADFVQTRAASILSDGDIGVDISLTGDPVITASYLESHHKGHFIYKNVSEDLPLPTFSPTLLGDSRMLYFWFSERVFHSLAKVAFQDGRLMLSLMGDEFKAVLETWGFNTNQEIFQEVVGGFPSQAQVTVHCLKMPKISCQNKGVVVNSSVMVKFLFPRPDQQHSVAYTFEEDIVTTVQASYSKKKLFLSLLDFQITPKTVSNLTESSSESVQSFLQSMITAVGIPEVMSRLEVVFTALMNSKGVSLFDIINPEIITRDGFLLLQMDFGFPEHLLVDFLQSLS
Test: In vitro concentration required to inhibit 50% of cholesteryl ester transfer protein mediated cholesteryl ester transfer from HDL to VLDL and LDL in human plasma
recordedEndpoint: pIC50
Note on units: pIC50 is unitless, being -log10 of a concentration expressed in mol/L.

Sample records with pIC50:
CCC(=O)Nc1ccccc1SSc1ccccc1NC(=O)CC :: 3.74
CCCCCCC1(C(=O)Nc2ccccc2S)CCCCC1 :: 5.22
CC1(C(=O)Nc2ccccc2SSc2ccccc2NC(=O)C2(C)CCCCC2)CCCCC1 :: 5.10
CCCCCC1(C(=O)Nc2ccccc2S)CCCCC1 :: 5.15
CCCCCCCC1(C(=O)Nc2ccccc2S)CCCCC1 :: 5.15
CC(=O)Nc1ccccc1SSc1ccccc1NC(C)=O :: 3.30
CC(C)CCCC1(C(=O)Nc2ccccc2S)CCCCC1 :: 5.22
CC(C)(C)C(=O)Nc1ccccc1SSc1ccccc1NC(=O)C(C)(C)C :: 4.89
CCC(CC)CC1(C(=O)Nc2ccccc2SC(=O)C(C)C)CCCCC1 [DALCETRAPIB] :: 5.22
CCC(CC)CC1(C(=O)Nc2ccccc2S)CCCCC1 :: 5.30

Q. Please give the measured pIC50 for this compound: CCCCCCCC(=O)Nc1ccccc1SSc1ccccc1NC(=O)CCCCCCC
A. 4.68

Q. Please give the measured pIC50 for this compound: CCCCC1(C(=O)Nc2ccccc2S)CCCCC1
A. 5.05

---

Below, each entry is listed alongside its reported pIC50.
Target: Cholesteryl ester transfer protein (Homo sapiens, UniProt P11597)
Assay: In vitro concentration required to inhibit 50% of cholesteryl ester transfer protein mediated cholesteryl ester transfer from HDL to VLDL and LDL in human plasma
pIC50: −log10 of the molar value.

Sample records with pIC50:
CC(C)(C)NC(=O)c1ccccc1SSc1ccccc1C(=O)NC(C)(C)C :: < 3.30
CC(C)(C)C(=O)Nc1ccc(SSc2ccc(NC(=O)C(C)(C)C)cc2)cc1 :: < 3.30
CN(C(=O)C(C)(C)C)c1ccccc1SSc1ccccc1N(C)C(=O)C(C)(C)C :: < 3.52
CC1(C(=O)Nc2ccccc2OC(=O)Cc2ccccc2)CCCCC1 :: < 3.52
CC(C)(C)C(=O)Nc1cccc(SSc2cccc(NC(=O)C(C)(C)C)c2)c1 :: < 3.30

Q. Please give the measured pIC50 for this compound: CCC(CC)CC1(C(=O)Nc2ccccc2SC)CCCCC1
A. < 3.52
